Provide the recorded AC50 for the entries that follow.
# system: Cytochrome P450 2C19 (Homo sapiens)
# Sequence (P33261 whole entry): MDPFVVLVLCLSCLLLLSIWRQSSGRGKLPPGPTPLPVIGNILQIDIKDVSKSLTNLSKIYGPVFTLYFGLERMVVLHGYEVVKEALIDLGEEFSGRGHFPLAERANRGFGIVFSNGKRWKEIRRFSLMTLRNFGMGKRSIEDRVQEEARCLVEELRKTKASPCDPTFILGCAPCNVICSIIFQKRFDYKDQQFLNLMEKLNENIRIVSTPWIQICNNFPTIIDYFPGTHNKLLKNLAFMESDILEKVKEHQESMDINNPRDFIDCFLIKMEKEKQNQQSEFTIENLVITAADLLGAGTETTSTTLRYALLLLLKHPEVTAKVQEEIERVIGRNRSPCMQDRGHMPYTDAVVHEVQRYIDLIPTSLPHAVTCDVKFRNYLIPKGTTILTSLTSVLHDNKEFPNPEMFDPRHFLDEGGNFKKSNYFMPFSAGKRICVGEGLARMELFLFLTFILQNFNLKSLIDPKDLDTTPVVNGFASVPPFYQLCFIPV
# procedure.text: Cytochrome panel assay with activity outcomes. Panel member name: p450-cyp2c19 Compounds with AC50 equal or less than 10 uM are considered active
# Assay type: functional
# details: read-out: AC50

Q) # query: AC50 of entry `O=S(=O)(N=C(Nc1ccccn1)c1ccccc1)c1ccccc1`
A) 15.8 µM (inconclusive)

Q) # query: AC50 of entry `CC(C)(C)C(=O)Nc1cccc(-c2nc3ccccc3c(=O)o2)c1`
A) 35.5 µM (inconclusive)

Q) # query: AC50 of entry `Nc1cc(N)nc(SCC(=O)NNC(=O)c2ccc(Cl)cc2)n1`
A) 39.8 µM (inconclusive)

Q) # query: AC50 of entry C[C@H]1C2=C3C(CC[C@H]4C(OCc5ccc(F)cc5C(F)(F)F)OC[C@](C)([C@@H]34)N(C(=O)OC(C)(C)C)C2)C(CO)C1CO (stereo not given in full)
A) 39.8 µM (inconclusive)

Q) # query: AC50 of entry CC(C)C(=O)c1c(C(C)C)nn2ccccc12 [IBUDILAST]
A) 3.16 µM (inconclusive)

----------
# system: 5-hydroxytryptamine receptor 2A (Mus musculus, UniProt P35363);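 note: CHO-K1 cells with tagged receptor and beta-arrestin; agonist potency measured as compound-induced activation of the receptor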
# Sequence (P35363 whole entry): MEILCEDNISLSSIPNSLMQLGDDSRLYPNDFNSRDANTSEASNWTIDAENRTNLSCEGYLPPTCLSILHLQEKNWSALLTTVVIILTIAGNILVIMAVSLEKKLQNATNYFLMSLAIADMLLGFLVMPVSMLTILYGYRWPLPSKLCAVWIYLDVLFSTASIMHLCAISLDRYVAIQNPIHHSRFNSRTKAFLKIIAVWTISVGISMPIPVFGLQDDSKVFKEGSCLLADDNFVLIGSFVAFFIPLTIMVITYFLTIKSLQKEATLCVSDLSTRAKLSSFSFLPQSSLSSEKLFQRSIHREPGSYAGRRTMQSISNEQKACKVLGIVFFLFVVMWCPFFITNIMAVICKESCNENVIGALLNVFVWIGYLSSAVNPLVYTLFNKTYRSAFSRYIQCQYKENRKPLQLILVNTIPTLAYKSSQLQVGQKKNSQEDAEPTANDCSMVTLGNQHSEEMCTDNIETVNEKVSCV
# Assay type: functional, cell-based
Activity calls are given as the source filed them.
Your reply should match one of these outcome classes. active, inactive

Q) Would you mind telling me which call this test gave `CCOc1ccc(NC(=O)CCN2CCN(c3ccccc3F)CC2)cc1` ?
A) active

Q) Would you mind telling me which call this test gave CCN(CC)C(=O)N[C@H]1C[C@@H]2c3cccc4[nH]cc(c34)C[C@H]2N(C)C1 [TERGURIDE] ?
A) active

Q) Would you mind telling me which call this test gave `c1ccc(COc2cccc(CN3CCN(c4ccccn4)CC3)c2)cc1` ?
A) active

Q) Would you mind telling me which call this test gave `Oc1cc2c(cc1O)[C@@H](c1ccccc1)CNCC2` ?
A) inactive

----------
# system: Histone-lysine N-methyltransferase NSD2 (Homo sapiens)
# Sequence (O96028 whole entry): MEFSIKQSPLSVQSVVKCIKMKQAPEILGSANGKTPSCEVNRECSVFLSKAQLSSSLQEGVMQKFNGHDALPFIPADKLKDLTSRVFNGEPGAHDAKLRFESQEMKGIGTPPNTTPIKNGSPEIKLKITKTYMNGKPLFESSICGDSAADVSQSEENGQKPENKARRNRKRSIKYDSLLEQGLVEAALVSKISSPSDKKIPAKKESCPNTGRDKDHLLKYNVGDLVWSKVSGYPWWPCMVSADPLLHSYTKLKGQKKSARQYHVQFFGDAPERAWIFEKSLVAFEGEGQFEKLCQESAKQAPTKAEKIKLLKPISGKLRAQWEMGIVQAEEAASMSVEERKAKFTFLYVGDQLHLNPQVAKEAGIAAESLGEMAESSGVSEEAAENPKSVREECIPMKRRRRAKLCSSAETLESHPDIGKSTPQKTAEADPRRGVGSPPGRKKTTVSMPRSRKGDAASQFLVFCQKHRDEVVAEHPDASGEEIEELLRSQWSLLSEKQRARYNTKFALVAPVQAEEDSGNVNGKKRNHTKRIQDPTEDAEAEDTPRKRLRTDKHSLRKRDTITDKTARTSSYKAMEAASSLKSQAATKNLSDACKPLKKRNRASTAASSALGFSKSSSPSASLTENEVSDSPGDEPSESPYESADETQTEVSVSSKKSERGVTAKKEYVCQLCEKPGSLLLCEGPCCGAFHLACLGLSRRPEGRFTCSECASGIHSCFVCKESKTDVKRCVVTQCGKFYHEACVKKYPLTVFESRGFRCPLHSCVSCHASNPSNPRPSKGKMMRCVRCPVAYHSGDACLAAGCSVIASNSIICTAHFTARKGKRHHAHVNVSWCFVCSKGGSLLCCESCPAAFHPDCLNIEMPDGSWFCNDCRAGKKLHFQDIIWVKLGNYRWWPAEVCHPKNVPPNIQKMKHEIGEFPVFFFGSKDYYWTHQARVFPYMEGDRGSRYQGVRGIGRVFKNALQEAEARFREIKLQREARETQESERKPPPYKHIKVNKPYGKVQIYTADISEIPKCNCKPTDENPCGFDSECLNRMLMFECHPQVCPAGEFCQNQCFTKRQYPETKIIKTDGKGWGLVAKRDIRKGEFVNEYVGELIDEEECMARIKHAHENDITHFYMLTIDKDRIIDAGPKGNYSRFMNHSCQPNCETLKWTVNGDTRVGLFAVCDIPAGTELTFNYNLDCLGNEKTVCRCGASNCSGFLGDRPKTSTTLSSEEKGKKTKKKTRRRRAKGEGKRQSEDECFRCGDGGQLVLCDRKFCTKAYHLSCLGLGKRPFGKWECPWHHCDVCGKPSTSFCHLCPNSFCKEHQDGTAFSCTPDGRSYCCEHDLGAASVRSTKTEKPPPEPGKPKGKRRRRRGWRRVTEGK
# Assay type: biochemical
Active and inactive are the calls of the source.
Your reply should match one of these outcome classes. active, inactive

Q) Would you mind telling me which call this test gave `COc1cc(NS(=O)(=O)c2ccc(NC(=S)NC(=O)/C=C/c3ccco3)cc2)ncn1` ?
A) active

Q) Would you mind telling me which call this test gave `CCN(CC)CCCNC(=O)c1cc(-c2cccc(Cl)c2)on1` ?
A) inactive

Q) Would you mind telling me which call this test gave `COC1=CC(=O)c2c(ccc3ncnc(N)c23)C1=O` ?
A) active

Q) Would you mind telling me which call this test gave `O=C(O)CSc1cc(NS(=O)(=O)c2ccc(Br)cc2)c2ccccc2c1O` ?
A) active

Q) Would you mind telling me which call this test gave `Cc1ccc(-n2cccc2/C=C2/C(=N)N3C(=NC2=O)SN=C3S(C)(=O)=O)cc1Cl` ?
A) active

Q) Would you mind telling me which call this test gave `COc1ccc(N2C(=O)NC(=O)/C(=C\c3ccc([N+](=O)[O-])s3)C2=O)cc1` ?
A) inactive

Q) Would you mind telling me which call this test gave `Cc1cc(C)cc(N2C(=O)NC(=O)/C(=C\C=C\c3ccco3)C2=O)c1` ?
A) active

----------
# procedure.text: Luminescence Cell-Based Dose Response HTS to Identify Activators of Luciferase Translation or Activity in H4 […] Cells. [Related pubchem assays: 1829 (Project Summary), 1814 (Primary HTS)]
# Assay type: functional
Active and inactive are the calls of the source.
Provide the recorded EC50 for the entries that follow.

Q) # query: EC50 of entry `N#Cc1c(-c2ccccc2)c(-c2ccccc2)nn(CC(=O)NNC(=O)Nc2ccccc2)c1=O`
A) 15.2 µM (active)

Q) # query: EC50 of entry `CCOc1ccc2nc(N3CCOCC3)nc(C)c2c1`
A) 0.256 µM (active)

Q) # query: EC50 of entry `CCN(CC)C(=O)N1c2ccccc2C=Cc2ccccc21`
A) 30 µM (active)
